Biological target: Human TRPC6 (Homo sapiens, UniProt Q9Y210)
Construct: expressed in transfected cells
Sequence (Q9Y210 1-931): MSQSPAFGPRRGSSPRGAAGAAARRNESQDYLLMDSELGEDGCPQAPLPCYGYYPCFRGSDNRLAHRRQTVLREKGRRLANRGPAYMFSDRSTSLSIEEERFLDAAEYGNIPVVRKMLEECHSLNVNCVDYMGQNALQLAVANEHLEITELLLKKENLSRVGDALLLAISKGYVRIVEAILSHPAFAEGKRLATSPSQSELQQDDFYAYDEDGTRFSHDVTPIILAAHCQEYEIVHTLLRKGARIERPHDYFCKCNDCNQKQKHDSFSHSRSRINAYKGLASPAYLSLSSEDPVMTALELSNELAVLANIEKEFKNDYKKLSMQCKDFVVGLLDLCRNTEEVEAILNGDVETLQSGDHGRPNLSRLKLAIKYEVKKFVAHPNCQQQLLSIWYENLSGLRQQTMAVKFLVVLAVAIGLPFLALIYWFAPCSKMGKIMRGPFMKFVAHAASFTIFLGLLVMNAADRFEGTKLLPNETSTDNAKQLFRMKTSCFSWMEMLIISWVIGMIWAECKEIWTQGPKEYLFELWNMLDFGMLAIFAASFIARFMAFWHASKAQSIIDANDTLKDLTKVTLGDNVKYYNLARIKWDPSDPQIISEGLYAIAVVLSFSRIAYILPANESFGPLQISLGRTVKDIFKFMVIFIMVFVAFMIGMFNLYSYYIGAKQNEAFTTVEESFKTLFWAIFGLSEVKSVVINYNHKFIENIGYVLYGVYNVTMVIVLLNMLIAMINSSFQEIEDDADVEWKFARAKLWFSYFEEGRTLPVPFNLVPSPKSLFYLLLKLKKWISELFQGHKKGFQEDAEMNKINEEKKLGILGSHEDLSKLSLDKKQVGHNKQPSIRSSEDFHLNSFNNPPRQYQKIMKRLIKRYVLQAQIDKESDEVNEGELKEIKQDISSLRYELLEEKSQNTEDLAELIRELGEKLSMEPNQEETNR
Assay: Evaluation of TRPC6 channel inhibitory activity (1), FLIPR Calcium 5 Assay Kit, OAG stimulation (Compound Nos. 1-1293)
Type: cell-based
Conditions: Human TRPC6 stably-expressing cells, OAG 30 μM, FLIPR Calcium 5 Assay Kit; read-out: Inhibitory activity (pIC50 class) (converted)
Description: Evaluation of TRPC6 Channel Inhibitory Activity (1) (Compound Nos. 1-1293) In order to investigate TRPC6 channel inhibitory activity of the compounds, evaluation was conducted using FLIPR® Calcium 5 Assay Kit (Molecular Devices) in accordance with the following procedure. […] A volume of 12.5 μL of a compound solution was added into each well while the fluorescence was measured with FLIPR tetra. […]
measuredParameter: IC50

compound: N#Cc1ccc(-c2ncc(CCN)cn2)c(Oc2nnc(-c3ccccn3)s2)c1
measuredParameter: IC50
testResult: 10 to 1000 nM

# return IC50 for each item in the list
1. N#Cc1ccc(-c2ncc(CN)cn2)c(C(=O)c2nnc(N3CCOCC3)o2)c1
2. Cc1nc(Oc2cc(C#N)ccc2-c2ccc(CCN)cc2)cc(N2CCCCCC2)n1
3. Cc1nc(CNC(C)C)cn1Cc1cc(C#N)ccc1-c1ncc(CCN)cn1
4. Cc1nc(Oc2cc(C#N)ccc2-c2ccc(CCN)nc2)cc(N2CCOCC2)n1
5. Cc1nc(N2CCOCC2)sc1C(=O)c1cc(C#N)ccc1-c1ncc(CCN)cn1
6. Cc1nc(Oc2cc(C#N)ccc2-c2ccc(C(C)(O)CN)cc2)cc(N2CCOCC2)n1 (stereo not shown)

1. > 1000 nM
2. 10 to 1000 nM
3. > 1000 nM
4. 10 to 1000 nM
5. < 10 nM
6. 10 to 1000 nM
